# experiment_notes: Oral bioavailability in dog at 5 mg/kg
# Format: ADME, organism-based, Canis lupus familiaris
# measurement_context: in vivo
measure: bioavailability

- CC(C)(C)CN1CCC2(CC1)CN(c1ccccc1NC(=O)Nc1nc3ccc(Cl)nc3s1)c1c(O)ccc(Cl)c12: 27%

====

# Tested on: Liver microsome
# experiment_notes: Metabolic stability in human liver microsomes assessed as compound remaining
# Format: ADME
Measured Stability accompanies every entry in the list below.
measure: Stability (%)

• CC(C)(C)CN1CCC2(CC1)CN(c1ccccc1NC(=O)Nc1nc3ccc(F)cc3s1)c1c(O)ccc(Cl)c12 = 100
• CC(C)(C)CN1CCC2(CC1)CN(c1ccccc1NC(=O)Nc1ccc(OC(F)(F)F)cc1)c1c(O)cccc12 = 80
• CC(C)(C)CN1CCC2(CC1)CN(c1ccccc1NC(=O)Nc1ccc(C(F)(F)F)cc1)c1c(O)ccc(Cl)c12 = 93
• CC(C)(C)CN1CCC2(CC1)CN(c1ccccc1NC(=O)Nc1ccc(OC(F)(F)F)cc1)c1c(O)ccc(C(F)(F)F)c12 = 100
• CN(C)S(=O)(=O)c1ccc(O)c2c1C1(CCN(CC(C)(C)C)CC1)CN2c1ccccc1NC(=O)Nc1ccc(OC(F)(F)F)cc1 = 21
• COC(=O)c1ccc(O)c2c1C1(CCN(CC(C)(C)C)CC1)CN2c1ccccc1NC(=O)Nc1ccc(OC(F)(F)F)cc1 = 48
• CC(C)(C)CN1CCC2(CC1)CN(c1ccccc1NC(=O)Nc1ccc(OC(F)(F)F)cc1)c1c(O)ccc(Cl)c12 = 79
• CC(C)(C)CN1CCC2(CC1)CN(c1ccccc1NC(=O)Nc1csc(Cl)n1)c1c(O)ccc(Cl)c12 = 87

====

# experimental_target: P2Y purinoceptor 1 (Homo sapiens)
# Sequence (P47900 whole entry): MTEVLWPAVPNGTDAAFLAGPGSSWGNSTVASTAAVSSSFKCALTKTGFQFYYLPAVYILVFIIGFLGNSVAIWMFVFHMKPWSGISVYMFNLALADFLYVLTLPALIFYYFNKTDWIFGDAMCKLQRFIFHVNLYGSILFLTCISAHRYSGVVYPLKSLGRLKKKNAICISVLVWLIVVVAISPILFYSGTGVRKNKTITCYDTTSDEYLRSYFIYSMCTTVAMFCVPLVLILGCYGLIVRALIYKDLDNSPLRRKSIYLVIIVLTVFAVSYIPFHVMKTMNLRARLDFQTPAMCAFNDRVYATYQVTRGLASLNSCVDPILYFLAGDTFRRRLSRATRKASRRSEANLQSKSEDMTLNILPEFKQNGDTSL
# experiment_notes: Antagonist activity at P2Y1 receptor in human platelets by FLIPR assay in presence of 2-methylthio-ADP
// NB: equality with 0.1 nM counts as Not fulfilled; only IC50 strictly below is Fulfilled

• CC(C)(C)CN1CCC2(CC1)CN(c1ccccc1NC(=O)Nc1ccc(OC(F)(F)F)cc1)c1c(O)ccc(C(F)(F)F)c12 = Not fulfilled
• CN(C)S(=O)(=O)c1ccc(O)c2c1C1(CCN(CC(C)(C)C)CC1)CN2c1ccccc1NC(=O)Nc1ccc(OC(F)(F)F)cc1 = Not fulfilled
• COC(=O)c1ccc(O)c2c1C1(CCN(CC(C)(C)C)CC1)CN2c1ccccc1NC(=O)Nc1ccc(OC(F)(F)F)cc1 = Not fulfilled
• CC(C)(C)CN1CCC2(CC1)CN(c1ccccc1NC(=O)Nc1ccc(OC(F)(F)F)cc1)c1c(O)cccc12 = Not fulfilled
• CC(C)(C)CN1CCC2(CC1)CN(c1ccccc1NC(=O)Nc1ccc(OC(F)(F)F)cc1)c1c(O)ccc(Cl)c12 = Fulfilled
• CC(C)(C)CN1CCC2(CC1)CN(c1ccccc1NC(=O)Nc1ccc(OC(F)(F)F)cc1)c1cccc(O)c12 = Not fulfilled
• CC(C)(C)CN1CCC2(CC1)CN(c1ccccc1NC(=O)Nc1ccc(OC(F)(F)F)cc1)c1c(O)ccc(F)c12 = Not fulfilled
• CC(C)(C)CN1CCC2(CC1)CN(c1ccccc1NC(=O)Nc1csc(Cl)n1)c1c(O)ccc(Cl)c12 = Fulfilled
• CC(C)(C)CN1CCC2(CC1)CN(c1ccccc1NC(=O)Nc1ccc(OC(F)(F)F)cc1)c1cc(O)ccc12 = Not fulfilled
• CC(C)(C)CN1CCC2(CC1)CN(c1ccccc1NC(=O)Nc1nc3ccc(Cl)nc3s1)c1c(O)ccc(Cl)c12 = Not fulfilled
• CC(C)(C)CN1CCC2(CC1)CN(c1ccccc1NC(=O)Nc1nc3ccc(Cl)cc3s1)c1c(O)ccc(Cl)c12 = Not fulfilled
• CC(C)(C)CN1CCC2(CC1)CN(c1ccccc1NC(=O)Nc1ccc(OC(F)(F)F)cc1)c1c(O)ccc(C#N)c12 = Fulfilled
• CC(C)(C)CN1CCC2(CC1)CN(c1ccccc1NC(=O)Nc1ccc(C(F)(F)F)cc1)c1c(O)ccc(Cl)c12 = Fulfilled
• CC(C)(C)CN1CCC2(CC1)CN(c1ccccc1NC(=O)Nc1nc3ccc(F)cc3s1)c1c(O)ccc(Cl)c12 = Fulfilled
• CC(C)(C)CN1CCC2(CC1)CN(c1ccccc1NC(=O)Nc1ccc(OC(F)(F)F)cc1)c1ccc(O)cc12 = Not fulfilled

====

# experiment_notes: Half life in cynomolgus monkey at 0.2 mg/kg, iv and 5 mg/kg, po
# Type: ADME, organism-based, Macaca fascicularis
# measurement_context: in vivo
measure: half-life (h)

* CC(C)(C)CN1CCC2(CC1)CN(c1ccccc1NC(=O)Nc1nc3ccc(Cl)nc3s1)c1c(O)ccc(Cl)c12 | 8.2

====

# experimental_target: P2Y purinoceptor 2 (Homo sapiens, UniProt P41231)
# Sequence (P41231 whole entry): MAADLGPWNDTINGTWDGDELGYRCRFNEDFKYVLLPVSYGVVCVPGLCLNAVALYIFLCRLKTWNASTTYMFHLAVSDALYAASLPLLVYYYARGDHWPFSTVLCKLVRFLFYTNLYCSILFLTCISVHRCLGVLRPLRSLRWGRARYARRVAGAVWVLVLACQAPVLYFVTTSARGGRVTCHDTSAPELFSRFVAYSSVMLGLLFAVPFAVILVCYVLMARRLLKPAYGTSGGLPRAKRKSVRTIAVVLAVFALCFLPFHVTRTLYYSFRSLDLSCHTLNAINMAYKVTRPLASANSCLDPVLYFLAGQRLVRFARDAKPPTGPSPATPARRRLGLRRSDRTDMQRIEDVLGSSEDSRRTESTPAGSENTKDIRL
pIC50: −log10 of the molar value.
measure: pIC50

- CC(C)(C)CN1CCC2(CC1)CN(c1ccccc1NC(=O)Nc1nc3ccc(Cl)nc3s1)c1c(O)ccc(Cl)c12: < 5.00

====

# experiment_notes: Clearance in cynomolgus monkey at 0.2 mg/kg, iv and 5 mg/kg, po
# Assay type: ADME, organism-based, Macaca fascicularis
# measurement_context: in vivo
measure: clearance (mL/min/kg)

• CC(C)(C)CN1CCC2(CC1)CN(c1ccccc1NC(=O)Nc1nc3ccc(Cl)nc3s1)c1c(O)ccc(Cl)c12 = 7.7

====

# experiment_notes: Plasma protein binding in rat
# Assay type: ADME, cell-free
# measurement_context: read-out: PPB (converted)
measure: fraction unbound

* CC(C)(C)CN1CCC2(CC1)CN(c1ccccc1NC(=O)Nc1nc3ccc(Cl)nc3s1)c1c(O)ccc(Cl)c12 | 0.002

====

# Test system: Blood
# experiment_notes: Drug uptake in rat blood at 0.3 mg/kg, po
# Type: ADME, organism-based
# Design: dose 0.3 mg/kg, route oral
# measurement_context: in vivo, read-out: Drug uptake
measure: concentration (nM)

• CC(C)(C)CN1CCC2(CC1)CN(c1ccccc1NC(=O)Nc1nc3ccc(Cl)nc3s1)c1c(O)ccc(Cl)c12 = 7

====

# experiment_notes: Aqueous solubility of the compound at pH 6.5
# Type: physicochemical
# measurement_context: aqueous medium
measure: solubility (mg/mL)

• CC(C)(C)CN1CCC2(CC1)CN(c1ccccc1NC(=O)Nc1ccc(OC(F)(F)F)cc1)c1c(O)cccc12 = 0.03

====

# System: Platelet
# experiment_notes: Inhibition of ADP-induced platelet aggregation in platelet-rich human plasma
# Type: functional
pIC50: −log10 of the molar value.
measure: pIC50

- CC(C)(C)CN1CCC2(CC1)CN(c1ccccc1NC(=O)Nc1nc3ccc(F)cc3s1)c1c(O)ccc(Cl)c12: 6.64
- CC(C)(C)CN1CCC2(CC1)CN(c1ccccc1NC(=O)Nc1ccc(OC(F)(F)F)cc1)c1c(O)cccc12: 5.80
- CC(C)(C)CN1CCC2(CC1)CN(c1ccccc1NC(=O)Nc1csc(Cl)n1)c1c(O)ccc(Cl)c12: 6.77
- CC(C)(C)CN1CCC2(CC1)CN(c1ccccc1NC(=O)Nc1ccc(OC(F)(F)F)cc1)c1c(O)ccc(Cl)c12: 6.35

====

# Test system: Blood
# experiment_notes: Drug uptake in rat blood at 10 mg/kg, po
# Type: ADME, organism-based
# Parameters: dose 10 mg/kg, route oral
# measurement_context: in vivo, read-out: Drug uptake
measure: concentration (nM)

- CC(C)(C)CN1CCC2(CC1)CN(c1ccccc1NC(=O)Nc1nc3ccc(Cl)nc3s1)c1c(O)ccc(Cl)c12: 240

====

# System: Plasma
# experiment_notes: Plasma concentration in rabbit at 30 mg/kg, iv
# Format: ADME, organism-based, Oryctolagus cuniculus
# Parameters: dose 30 mg/kg, route intravenous
# measurement_context: in vivo
measure: concentration

• CC(C)(C)CN1CCC2(CC1)CN(c1ccccc1NC(=O)Nc1nc3ccc(Cl)nc3s1)c1c(O)ccc(Cl)c12 = 158 µM

====

Measured pIC50 accompanies every entry in the list below.
# Test system: Platelet
# experiment_notes: Inhibition of ADP-induced platelet aggregation in platelet-rich human plasma
# Assay type: functional
pIC50: −log10 of the molar value.
measure: pIC50

- CC(C)(C)CN1CCC2(CC1)CN(c1ccccc1NC(=O)Nc1nc3ccc(Cl)nc3s1)c1c(O)ccc(Cl)c12: 6.89
- CC(C)(C)CN1CCC2(CC1)CN(c1ccccc1NC(=O)Nc1ccc(OC(F)(F)F)cc1)c1c(O)ccc(C#N)c12: 5.96
- CC(C)(C)CN1CCC2(CC1)CN(c1ccccc1NC(=O)Nc1ccc(OC(F)(F)F)cc1)c1c(O)ccc(C(F)(F)F)c12: 6.89
- CC(C)(C)CN1CCC2(CC1)CN(c1ccccc1NC(=O)Nc1nc3ccc(Cl)cc3s1)c1c(O)ccc(Cl)c12: 6.49
- CC(C)(C)CN1CCC2(CC1)CN(c1ccccc1NC(=O)Nc1ccc(C(F)(F)F)cc1)c1c(O)ccc(Cl)c12: 6.40
- COC(=O)c1ccc(O)c2c1C1(CCN(CC(C)(C)C)CC1)CN2c1ccccc1NC(=O)Nc1ccc(OC(F)(F)F)cc1: 6.15
- CN(C)S(=O)(=O)c1ccc(O)c2c1C1(CCN(CC(C)(C)C)CC1)CN2c1ccccc1NC(=O)Nc1ccc(OC(F)(F)F)cc1: 6.38
- CC(C)(C)CN1CCC2(CC1)CN(c1ccccc1NC(=O)Nc1ccc(OC(F)(F)F)cc1)c1c(O)ccc(F)c12: 6.04
